- Tested on: MT4
- ASSAY SUMMARY: Cytotoxicity against human MT4 cells assessed as reduction in cell viability by MTT assay
- Assay type: functional
- DETAILS: Homo sapiens, MT4
Assign CC50 to each entry below.
Lab book: enter the figure in µM, no units written.

Sample `Cc1ccc(-c2c(C)c3c(c(C)c2[C@H](OC(C)(C)C)C(=O)O)N(C)S(=O)(=O)c2ccccc2-3)cc1` ; CC50 observed: 19

Sample `Cc1ccc(-c2c(C)c3c(c(C)c2[C@H](OC(C)(C)C)C(=O)O)N(S(C)(=O)=O)Cc2cccc(F)c2-3)cc1` ; CC50 observed: 17

Sample `Cc1ccc(-c2c(C)c3c(c(C)c2[C@H](OC(C)(C)C)C(=O)O)N(S(C)(=O)=O)Cc2cnccc2-3)cc1` ; CC50 observed: 65

Sample `Cc1c(-c2ccc3c(c2)NCCO3)c([C@H](OC(C)(C)C)C(=O)O)c(C)c2c1-c1c(F)cccc1CN2S(C)(=O)=O` ; CC50 observed: 55

Sample `Cc1ccc(-c2c(C)c3c(c(C)c2[C@H](OC(C)(C)C)C(=O)O)N(S(C)(=O)=O)Cc2cc(C)ccc2-3)cc1` ; CC50 observed: 14

Sample `Cc1ccc(-c2c(C)c3c(c(C)c2[C@H](OC(C)(C)C)C(=O)O)N(S(C)(=O)=O)Cc2cc(Cl)ccc2-3)cc1` ; CC50 observed: 13

Sample `Cc1ccc(-c2c(C)c3c(c(C)c2[C@H](OC(C)(C)C)C(=O)O)N(S(C)(=O)=O)Cc2c(C)cccc2-3)cc1` ; CC50 observed: 17

====

- System: MT4
- ASSAY SUMMARY: Cytotoxicity against human MT4 cells assessed as reduction in cell viability by MTT assay
- Format: functional
- DETAILS: Homo sapiens, MT4
Assign CC50 to each entry below.
Lab book: enter the figure in µM, no units written.

Sample `Cc1ccc(-c2c(C)c3c(c(C)c2[C@H](OC(C)(C)C)C(=O)O)N(S(C)(=O)=O)Cc2cccc(F)c2-3)c(C)c1` ; CC50 observed: 18

Sample `CC(=O)N1Cc2ccccc2-c2c(C)c(-c3ccc(C)cc3)c([C@H](OC(C)(C)C)C(=O)O)c(C)c21` ; CC50 observed: 27

Sample `Cc1c(-c2c(C)c3c(c(C)c2[C@H](OC(C)(C)C)C(=O)O)N(S(C)(=O)=O)Cc2cccc(F)c2-3)ccc2c1CCCO2` ; CC50 observed: 17

Sample `Cc1ccc(-c2c(C)c3c(c(C)c2[C@H](OC(C)(C)C)C(=O)O)N(S(C)(=O)=O)Cc2cc(F)ccc2-3)cc1` ; CC50 observed: 19

Sample `Cc1ccc(-c2c([C@H](OC(C)(C)C)C(=O)O)c(C)c3c(c2C)c2ccccc2c(=O)n3C)cc1` ; CC50 observed: 25

Sample `Cc1c(-c2ccc3c(c2)NCCC3)c([C@H](OC(C)(C)C)C(=O)O)c(C)c2c1-c1c(F)cccc1CN2S(C)(=O)=O` ; CC50 observed: 30

Sample `Cc1ccc(-c2c(C)cc(N(Cc3ccccc3)S(C)(=O)=O)c(C)c2[C@H](OC(C)(C)C)C(=O)O)cc1` ; CC50 observed: 14

Sample `Cc1c(-c2ccc(Cl)cc2)c([C@H](OC(C)(C)C)C(=O)O)c(C)c2c1-c1c(F)cccc1CN2S(C)(=O)=O` ; CC50 observed: 16

Sample `Cc1ccc(-c2c(C)c3c(c(C)c2[C@H](OC(C)(C)C)C(=O)O)N(S(C)(=O)=O)Cc2cccnc2-3)cc1` ; CC50 observed: 70

Sample `COc1ccc(-c2c(C)c3c(c(C)c2[C@H](OC(C)(C)C)C(=O)O)N(S(C)(=O)=O)Cc2cccc(F)c2-3)cc1` ; CC50 observed: 31

Sample `Cc1ccc(-c2c(C)c3c(c(C)c2[C@H](OC(C)(C)C)C(=O)O)N(S(C)(=O)=O)Cc2c(F)cccc2-3)cc1` ; CC50 observed: 24

Sample `Cc1ccc(-c2c(C)c3c(c(C)c2[C@H](OC(C)(C)C)C(=O)O)N(S(C)(=O)=O)Cc2ccncc2-3)cc1` ; CC50 observed: 25

Sample `Cc1ccc(-c2c(C)c3c(c(C)c2[C@H](OC(C)(C)C)C(=O)O)N(S(C)(=O)=O)Cc2ccc(F)cc2-3)cc1` ; CC50 observed: 15

Sample `Cc1ccc(-c2c(C)c3c(c(C)c2[C@H](OC(C)(C)C)C(=O)O)N(S(C)(=O)=O)Cc2cccc(Cl)c2-3)cc1` ; CC50 observed: 16
